- assay.system: Phospho-EGFR (Tyr1068) in H1975 cells (Homo sapiens, UniProt P00533, L858R/T790M)
- Sequence (P00533 25-1210 T790M/L858R): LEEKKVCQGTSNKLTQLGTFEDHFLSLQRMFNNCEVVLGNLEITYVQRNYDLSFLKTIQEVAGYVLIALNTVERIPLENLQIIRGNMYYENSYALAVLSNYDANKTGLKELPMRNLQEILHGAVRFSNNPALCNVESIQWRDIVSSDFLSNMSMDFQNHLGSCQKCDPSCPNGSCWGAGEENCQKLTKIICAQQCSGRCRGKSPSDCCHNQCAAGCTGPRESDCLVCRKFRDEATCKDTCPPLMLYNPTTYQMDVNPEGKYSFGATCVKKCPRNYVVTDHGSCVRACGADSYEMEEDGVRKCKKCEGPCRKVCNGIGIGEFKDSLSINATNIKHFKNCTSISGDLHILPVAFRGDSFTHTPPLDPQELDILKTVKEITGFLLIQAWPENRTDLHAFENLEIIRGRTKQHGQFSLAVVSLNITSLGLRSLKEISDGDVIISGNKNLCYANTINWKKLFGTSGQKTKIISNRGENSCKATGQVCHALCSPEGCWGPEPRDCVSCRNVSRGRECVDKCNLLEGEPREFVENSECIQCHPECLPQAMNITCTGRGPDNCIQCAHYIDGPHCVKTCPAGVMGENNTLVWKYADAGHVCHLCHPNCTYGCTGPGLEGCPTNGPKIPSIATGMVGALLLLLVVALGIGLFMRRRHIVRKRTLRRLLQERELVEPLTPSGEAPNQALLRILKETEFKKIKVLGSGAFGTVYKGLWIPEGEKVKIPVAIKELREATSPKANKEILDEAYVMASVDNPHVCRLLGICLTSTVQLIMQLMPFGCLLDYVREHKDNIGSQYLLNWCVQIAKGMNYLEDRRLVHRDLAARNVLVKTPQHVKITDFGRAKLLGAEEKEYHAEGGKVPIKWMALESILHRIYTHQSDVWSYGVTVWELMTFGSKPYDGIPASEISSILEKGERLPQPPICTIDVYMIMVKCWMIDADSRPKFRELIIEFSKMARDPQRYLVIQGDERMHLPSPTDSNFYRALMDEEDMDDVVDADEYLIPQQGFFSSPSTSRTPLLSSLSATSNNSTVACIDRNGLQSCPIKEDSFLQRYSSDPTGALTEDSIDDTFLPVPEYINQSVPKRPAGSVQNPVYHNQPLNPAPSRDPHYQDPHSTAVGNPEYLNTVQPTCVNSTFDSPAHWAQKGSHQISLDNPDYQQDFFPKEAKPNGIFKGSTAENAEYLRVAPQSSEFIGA
- assay.procedure: HTRF pEGFR/total EGFR in H1975 cells
- condition.description: ratio pEGFR/total EGFR, compound 3 hours
Consider the following compounds and their measured IC50 readings.

| compound | IC50 |
| --- | --- |
| C#Cc1cc(=O)n(-c2ccccc2)c2nc(Nc3ccc(N(C)C(=O)CCOC)cc3OC)ncc12 [Example 36] | 1000 to 3000 nM |
| C#Cc1c(-c2ccccc2Cl)c(=O)n(C)c2nc(Nc3ccc(N4CCN(C)CC4)cc3)ncc12 [Example 128] | 500 to 1000 nM |
| C#Cc1c(C)c(=O)n(Cc2ncco2)c2nc(Nc3ccc(N4CCN(C)CC4)cc3)ncc12 [Example 114] | 1000 to 3000 nM |
| C#Cc1cc(=O)n(C)c2nc(Nc3ccc(N4CCN(C)CC4)c(NC(=O)NC4CCCC4)c3)ncc12 [Example 219] | 500 to 1000 nM |
| C#Cc1cc(=O)n([C@H]2CC[C@@H](NC(=O)CC(=O)N(C)C)CC2)c2nc(Nc3ccc(N4CCN(C)CC4)cc3)ncc12 [Example 95] | < 500 nM |
| C#Cc1cc(=O)n(-c2ccc(NS(C)(=O)=O)cc2)c2nc(Nc3ccccc3OC)ncc12 [Example 63] | > 3000 nM |
| C#Cc1cc(=O)n(-c2ccccc2)c2nc(Nc3ccc(N4CCC(N5CCN(C)CC5)CC4)cc3)ncc12 [Example 23] | < 500 nM |
| C#Cc1cc(=O)n(C2CC(=O)N(C)C2)c2nc(Nc3ccc(N4CCN(C)CC4)cc3)ncc12 (centres unmarked) [Example 117] | > 3000 nM |

====

- assay.system: Phospho-EGFR (Tyr1068) in H1975 cells (Homo sapiens, UniProt P00533, L858R/T790M)
- assay.procedure: HTRF pEGFR/total EGFR in H1975 cells
- condition.description: ratio pEGFR/total EGFR, compound 3 hours
pIC50: −log10 of the molar value.
# Lookup of reported pIC50 keyed by entry
assay.readout: pIC50

| compound.smiles | assay.system | observed |
| --- | --- | --- |
| C#Cc1cc(=O)n(C)c2nc(Nc3ccc(N4CCN(C)CC4)c(OCCC4CCCC4)c3)ncc12 | Phospho-EGFR (Tyr1068) in H1975 cells (Homo sapiens, UniProt P00533, L858R/T790M) | > 6.30 |
| C#Cc1c(C)c(=O)n(Cc2ccncc2)c2nc(Nc3ccc(N4CCN(C)CC4)cc3)ncc12 | Phospho-EGFR (Tyr1068) in H1975 cells (Homo sapiens, UniProt P00533, L858R/T790M) | 5.52 to 6.00 |
| C#Cc1cc(=O)n2c3nc(ncc13)Nc1ccc(N3CCN(C)CC3)c(c1)COCCC2 | Phospho-EGFR (Tyr1068) in H1975 cells (Homo sapiens, UniProt P00533, L858R/T790M) | < 5.52 |
| C#Cc1cc(=O)n([C@H]2CC[C@@H](NC(=O)CC)CC2)c2nc(Nc3ccc(N4CCN(C)CC4)cc3)ncc12 | Phospho-EGFR (Tyr1068) in H1975 cells (Homo sapiens, UniProt P00533, L858R/T790M) | > 6.30 |
